This listing pairs molecules with measured growth.
# Tested on: HCC-2998 colon
# test_description: NCI-60 one-dose screen, 48 h (100 = growth as untreated, 0 = no growth, -100 = all killed)
# condition_parameters: 10 µM unless noted
About 83,000 compounds went through this panel and 20% of them were active in at least one assay; those are over-represented in the sample as a whole.
measurement_label: growth (%)

molecule	readout_value
COc1cc(/C=C2\C(=O)N(CCOc3cc(O)c4c(=O)cc(-c5ccccc5)oc4c3)c3ccccc32)cc(OC)c1O	80
O=C(O)c1nn(-c2ccc(Cl)cc2)nc1N1CCCC1	103
C=C(C)[C@@H]1CC[C@]2(COC(=O)c3cccnc3)CC[C@]3(C)[C@H](CC[C@@H]4[C@@]5(C)CCCN(C(=O)c6cccnc6)C(C)(C)[C@@H]5CC[C@]43C)[C@@H]12	50.1
Cn1cc(-c2ccc3occ(-c4cccc(-c5ccncc5)c4)c3n2)cn1	45
O=C1OCC2=C1C(c1cccc(F)c1)c1cc3c(cc1N2CCO)CCC3 (centres undefined)	7.85
CN1CCN(Cc2ccc(NC(=O)c3cncc(C#Cc4c(N)ncc5c(F)cccc45)c3)cc2C(F)(F)F)CC1	-11.9
COc1cc(OCc2cccc(-c3ccccc3)c2C)cc(OC)c1CN1CCCCC1C(=O)NCCOCCOCCN (centres undefined)	88
Cc1cc(=O)oc2cc(Oc3nc(-c4ccccc4)cn4c(-c5ccccc5)cnc34)ccc12	81
Nc1cc(-c2ccc(Cl)cc2)nn1-c1nc(-c2ccc(Br)cc2)cs1	101
O=C(Nc1ccccc1CNc1nc(Nc2ccc(OCCN3CCCC3)cc2)ncc1Cl)NC1CCCCC1	95.5
O=C(CSc1nnc(-c2ccc(Cl)c(Cl)c2)n1-c1ccccc1)Nc1ccc(C(=O)/C=C/c2ccc(Cl)cc2)cc1	110
CC1(C)CC[C@]2(CO)CC[C@]3(C)[C@H](CC[C@@H]4[C@@]5(C)CC[C@H](O)C(C)(C)[C@@H]5CC[C@]43C)[C@H]2[C@H]1O	101
Cc1c(C(=O)C(SC(=S)N2CCOCC2)SC(=S)N2CCOCC2)nnn1-c1ccc([N+](=O)[O-])cc1	104
N#Cc1nn(-c2ccccn2)c(N)c1C#N	106
COC(=O)c1c(C(=O)OC)c2ccc3c4ncccc4ccc3n2c1C(=O)c1ccc(C)cc1	107
CCCCCCCCNc1ncnc2c1ncn2Cc1nnc2c3ccccc3c(Cl)nn12	76.3
O=C(OCC(O)(CO)C(=O)NC12CC3CC(CC(C3)C1)C2)c1ccc(Cl)cc1 (centres undefined)	106
CC(=O)O[C@H]1C[C@@]2(C)[C@@H](C[C@@H](O)[C@H]3[C@@]4(C)CC[C@H](N5CCCC5)[C@@H](C)[C@@H]4CC[C@@]32C)/C1=C(\CCC=C(C)C)C(=O)O	104
N#CSCc1cc(Cl)c(CSC#N)cc1Cl	97
CNC1=C(Br)C(=O)c2c(C(=O)OC)c(C)nc(C)c2C1=O	69.6
O=C(Nc1ccccc1C(F)(F)F)C1=NCCCCN1	102
CCOc1ccccc1NC(=O)CCC(=O)OC	99.5
CC1=C(C(=O)OCc2ccccc2)C(c2ccc3c(c2)OCO3)n2c(nc3ccccc32)N1 (centres undefined)	56.4
O=C(O)CCCN1C(=O)CSC1=S	104
CN(C)c1ccc(/C=C/C2=[N+](C)c3ccccc3C2(C)C)cc1	28
Oc1ccc(C(c2ccc(O)cc2)c2ccc(Cl)cn2)cc1	1.05
O=c1n(C2OC(CO)C(O)C2O)ccc2nccn12 (centres undefined)	110
CCN(CC)c1ccc(/C=N/NC(=O)c2ccccc2Nc2ccnc(C(F)(F)F)c2)c(O)c1	76.7
Nc1nc(=O)n([C@H]2CC=C(CO)O2)cc1F	104
COc1c(O[C@@H]2OC(CO)[C@H](O)[C@H](O)C2O)cc2oc3cc(O)c(CC=C(C)C)c(O)c3c(=O)c2c1CC=C(C)C (some centres undefined)	95.9
COc1ccccc1-c1nc2ccc3[nH]ncc3c2c2c1CCCC2	113
C=CC(=O)NCc1cccc(Nc2ncc(Br)c(NCCCNC(=O)C3CCC3)n2)c1	-48.6
N#Cc1c(-c2ccc(F)cc2)cc(-c2cccc(Cl)c2)[nH]c1=O	94.2
Cc1nc2ccccc2c(/C=C/c2ccc(Br)cc2)c1C(=O)/C=C/c1ccccc1	-41.4
CCc1ccc(Cc2cnc(NC(=O)c3cc(C)oc3C)s2)cc1	58.3
Nc1ccc(Cl)c2c(=O)c3ccccc3[nH]c12	88.6
COc1cccc(CNc2nnc(C)c(C)n2)c1O	96.4
COC(=O)CNC(=O)c1ccc(NC(=O)c2[nH]c(C)c(Cl)c2Cl)c(O[C@H]2CCNC2)c1	115
CCOC(=O)CCC(=O)P(=O)(O)O	99.8
